organism: Oryctolagus cuniculus; assay: Tested in vitro for the maximal rate of platelet aggregation induced by platelet activating factor (10 e-7 mol/L) at a dose of 10 e7 mol/L in rabbit blood; format: functional
Where a SMILES comes first, the peptide text is derived from it. [ ]: non-standard residue; d: D form. Tpi = O=C(O)[C@@H]1Cc2c([nH]c3ccccc23)CN1

compound: N=C(N)NCCC[C@H](NC(=O)[C@@H]1Cc2c([nH]c3ccccc23)CN1)C(=O)NCC(=O)N[C@@H](CC(=O)O)C(=O)N[C@@H](Cc1ccccc1)C(=O)O (H-[Tpi]RGDF-OH)
Am [%]: 36.05
--
compound: CC(C)[C@H](NC(=O)[C@H](CC(=O)O)NC(=O)CNC(=O)[C@@H](N)CCCN=C(N)N)C(=O)O (H-RGDV-OH)
Am [%]: 54.36
--
compound: N=C(N)NCCC[C@H](N)C(=O)NCC(=O)N[C@@H](CC(=O)O)C(=O)NC(CO)C(=O)O (single isomer, unassigned)
Am [%]: 57.2
--
compound: O=C(O)[C@@H]1Cc2c([nH]c3ccccc23)CN1 [CYCLOMETHYLTRYPTOPHAN]
Am [%]: 55.15
--
compound: N=C(N)NCCC[C@H](NC(=O)[C@@H]1Cc2c([nH]c3ccccc23)CN1)C(=O)NCC(=O)N[C@@H](CC(=O)O)C(=O)N[C@@H](CO)C(=O)O (H-[Tpi]RGDS-OH)
Am [%]: 56.1
--
compound: CC(C)[C@H](NC(=O)[C@H](CC(=O)O)NC(=O)CNC(=O)[C@H](CCCN=C(N)N)NC(=O)[C@@H]1Cc2c([nH]c3ccccc23)CN1)C(=O)O (H-[Tpi]RGDV-OH)
Am [%]: 54.1
--
compound: NC(N)=NCCC[C@H](N)C(=O)NCC(=O)N[C@@H](CC(=O)O)C(=O)N[C@@H](Cc1ccccc1)C(=O)O (H-RGDF-OH)
Am [%]: 39.18
